Answer each item with its documented GI50.
Note: unit µM is implicit; provide only the numeric part.

What reported GI50 corresponds to CC1=CC(O)C(O)C2(C)C1CC1OC(=O)C(O)C3C(C)C(O)C4(O)OCC13C42 (centres undefined) on HCT-15?
335

HCT-15 / GI50 / "c1ccc2[nH]c3nc4ccccc4c-3cc2c1" : value?
0.229

Form field: GI50 recorded for "COc1cc2c(c3c1C=CCO3)C(=O)c1ccccc1C2=O" with HCT-15 (enter value)
29.6

Please state recorded GI50 (tested on HCT-15) of "Cc1cc(C)c(OC(=O)Nc2cccc3ccccc23)c(-c2ccccc2)c1"
34.4
